tested on: COLO 205 colon; assay: NCI tumour cell line growth inhibition, 48 h
The reader will find reported GI50 values listed item by item below.
readoutName: GI50

INSERT INTO assay_data (compound, assayresult) VALUES
  ('O=C(/C(=C\c1ccc([N+](=O)[O-])cc1)S(=O)Cc1ccc(F)cc1)c1ccc(F)cc1 (stereo not drawn)', '1910 nM'),
  ('COc1ccc(C(=O)COC(=O)[C@H](C[Se][Se]C[C@H](NC(=O)c2ccc(Br)cc2F)C(=O)OCC(=O)c2ccc(OC)cc2)NC(=O)c2ccc(Br)cc2F)cc1', '2560 nM'),
  ('Cl.Fc1c[c-]c(-c2ccccn2)c(F)c1.[Pt].c1ccc(P(c2ccccc2)C([PH+](c2ccccc2)c2ccccc2)[PH+](c2ccccc2)c2ccccc2)cc1', '1870 nM'),
  ('CCCCCCCCCCCCCC1=NCCN1CCO', '2110 nM'),
  ('COC(=O)[C@]12CC[C@@H](C)[C@H](C)[C@@H]1C1=CC[C@@H]3[C@@]4(C)C(C=O)=C[C@@](C)(COC(C)=O)C4=CC[C@@]3(C)[C@]1(C)CC2', '2340 nM'),
  ('Cc1ccc2ncnc(N(CC(C)C)CC(C)C)c2c1', '16900 nM'),
  ('Cc1ccc(-c2cc3c(SCC(=O)Nc4cc(C(F)(F)F)ccc4Cl)nccn3n2)cc1', '> 100000 nM'),
  ('Cc1cc(O)ccc1C1=NN(c2ccc(S(C)(=O)=O)cc2)C(=O)CC1', '6620 nM');

The reported numbers originate from PubChem BioAssay (NCI).
